I'd be grateful if you could share measured koff for these entries.
Target: T1, mouse GFRAL (analyte in Biacore assays) (mouse, UniProt Q6SJE0 20-349, limits assumed)
T1 construct: injected in solution over captured antibody
T1 sequence: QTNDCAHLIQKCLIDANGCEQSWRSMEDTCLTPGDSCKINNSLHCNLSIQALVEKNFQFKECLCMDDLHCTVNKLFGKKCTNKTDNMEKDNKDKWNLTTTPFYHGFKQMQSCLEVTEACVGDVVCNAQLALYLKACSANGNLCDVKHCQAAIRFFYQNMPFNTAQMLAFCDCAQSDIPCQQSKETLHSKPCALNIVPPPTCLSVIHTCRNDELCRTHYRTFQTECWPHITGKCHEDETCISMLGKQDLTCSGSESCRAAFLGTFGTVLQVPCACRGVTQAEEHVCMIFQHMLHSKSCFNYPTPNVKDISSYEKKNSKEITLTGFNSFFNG
Assay: Biacore SPR, antibody captured, GFRAL injected
I'd appreciate it if you wrote the number followed by its unit.

Sample records with koff:
[
  {
    "binder": "antibody designated 8D8 (antibody, V domains shown, mouse hybridoma monoclonal) VH: QVQLKESGPGLVAPSQSLSITCTVSGFSLSRYSVHWVRQPPGKGLEWLGMIWGFGSTDYNSALKSRLSITKDNSKSQFFLKMNSLQTDDTAMYYCARIHTTAGSYWGQGTLVTVSA VL: DIVMTQSQKFMSTSIGDRVSVTCKASQNVGTNVAWYQQKPGQSPKALVYSTSYRYSGVPDRFTGSGSGTDFTLTISNVQSEDLAEYFCHQYNSYPLTFGAGTKLELK",
    "koff": "0.00281 s⁻¹"
  },
  {
    "binder": "antibody designated 2B8 (antibody, V domains shown, mouse hybridoma monoclonal) VH: QIQLVQSGPELKKPGETVKISCKASGYTFTTYGMSWVKQAPGKIFKWMGWINTYSGVPTFVDDFRGRFAFSLETSASTAYLQIGNLKNEDTATYFCARRSSYYPYWYFDVWGTGTTVTVSS VL: DIQMTQSPASLSASVGETVTITCRPSENIYSYLTWFQQEQGKSPQLLVYNAQTLAEGVPSRFSGSGSGTHFSLKINSLQPEDFGTYYCQHYYGYPFTFGSGTKLEIK",
    "koff": "0.013 s⁻¹"
  },
  {
    "binder": "antibody designated 2B11 (antibody, V domains shown, mouse hybridoma monoclonal) VH: DVQLQESGPGLVKPSQSLSLTCSVTGYSITSGYYWNWIRQFPGNKLEWMGHIANDGSNYYNPFLKHRVSITRDTSKNQFFLKLNSVTIQDTATYYCARGGSYFDYVDYWGQGTTLTVSS VL: DIQMTQTTSSLSASLGDRVTINCRASQDISNYLNWYQQKPDGTVKLLIYYTSRLHSGVPSRFSGSGSGTDYSLTITNLEQEDIATYFCQQGNTLPFTFGSGTKLEIK",
    "koff": "0.00144 s⁻¹"
  },
  {
    "binder": "antibody designated 12A3 (antibody, V domains shown, mouse hybridoma monoclonal) VH: QIQLVQSGPELKKPGETVKISCKASGYPFTIYGMNWVEQAPGKGLKWMGWINTYSGVPTYADDFKGRFAFSLETSASTAYLQINNLKDEDTATYFCASATGNYWGQGTTLTVSS VL: DIQMTQSPSSLSASLGERVSLTCRASQDIGSSLNWLQQEPDGTIKRLIYATSSLDSGVPKRFSGSRSGSDYSLTISSLESEDFVDYYCLQYASSPYTFGGGTKVEIK",
    "koff": "0.00216 s⁻¹"
  },
  {
    "binder": "antibody designated 1C1 (antibody, V domains shown, mouse hybridoma monoclonal) VH: QMQLKQSGPGLVQPSQSLSITCTVSGFSLNDYGVHWIRQSPGKGLEWLGVIWSGGRTDYNAAFISRLSISKDNSKSQVFFKMSSLQPQDTAIYYCARWALYFLYGGSMDYWGQGTSVTVSS VL: DVVLTQTPLSLPVSPGDQASISCRSSQSLVHSSGITYLHWYLQKPGQSPKLLIYKLSNRFSGVPDRFSGSGSGTDFTLKISRVEAEDLGVYFCSQSTHVPPWTFGGGTKLEIK",
    "koff": "0.0025 s⁻¹"
  }
]

Okay, here is my list. What is koff for each of these?
1. antibody designated 1B3 (antibody, V domains shown, mouse hybridoma monoclonal) VH: QVHLQQPGAELVKPGASVKLSCKASGFTFTGYNINWVRLRPEQGLEWIGWIFPGDDNAKYNEKFKGKATLTTDKSSNTAYMQLSRLTSEDSAVYFCARTPVLSNYFDYWGQGTTLTVSS VL: DIQMTQSPSSLSASLGGKVTITCKASQDISKYISWYQHKPGKSPRLLIHYTSTLQPGIPSRFSGSGSGRDYSFSISNLEPEDIATYYCLQYDNLYTFGGGTKLEIK
2. antibody designated 17J16 (antibody, V domains shown, mouse hybridoma monoclonal) VH: QVQLQQSGAELAKPGASVKMSCKTSGYTFTDYWIHWVKQRPGQGLEWIGYINPNSNYAEYNQKFKVKATLTADKSSSTAYLQLSRLTSEDSAVYYCARFDWNWYFHVWGAGSTVTVSS VL: DVALTQIPLTLSVTVGQPASISCKSSQSLSDSDGKTYLNWLLQKPGQSPKRLIYLVSRLGSGVPDRFTGSGSGADFTLKISRVEAEDLGVYYCWQGTHFPQTFGGGTKLEIK

stdout:
1. 0.00107 s⁻¹
2. 1e-05 s⁻¹
